System: Klebsiella spp.
Assay: In vitro MIC, agar dilution
Format: cell-based
Details: Klebsiella
Structures can show the parent of a compound that is named as a salt.
Measurement Kind: MIC90 (µg/mL)
# output: bare number, implied unit µg/mL

Recorded MIC90, per entry:
input: Provide only the value of recorded MIC90 for NC1CCN(c2c(F)cc3c(=O)c(C(=O)O)cn(C4CC4)c3c2Cl)C1 (stereo not shown)
output: 0.03

input: Provide only the value of recorded MIC90 for Cc1c(N2C[C@@H]3CCCN[C@@H]3C2)c(F)cn2c(=O)c(C(=O)O)cc(C3CC3)c12 [Example 4, hydrochloride]
output: 0.06

input: Provide only the value of recorded MIC90 for `N[C@@H]1[C@H]2CN(c3nc4c(cc3F)c(=O)c(C(=O)O)cn4-c3ccc(F)cc3F)C[C@@H]12`
output: 0.25

---
input: Provide only the value of recorded MIC90 for CN[C@@H]1CN(c2c(F)cn3c(=O)c(C(=O)O)cc(C4CC4)c3c2C)CC12CC2 [Example 1, hydrochloride]
output: 0.03

input: Provide only the value of recorded MIC90 for `C[C@@H]1CN(c2c(F)c(N)c3c(=O)c(C(=O)O)cn(C4CC4)c3c2F)C[C@H](C)N1`
output: 0.06

input: Provide only the value of recorded MIC90 for Cc1c(N2C[C@@H](N)C3(CC3)C2)c(F)cn2c(=O)c(C(=O)O)cc(C3CC3)c12 [Example 5, hydrochloride]
output: 0.06

input: Provide only the value of recorded MIC90 for `O=C(O)c1cn(C2CC2)c2cc(N3CCNCC3)c(F)cc2c1=O`
output: 0.12

====

System: E. coli
Assay: In vitro MIC, agar dilution
Type: cell-based
Settings: Escherichia coli, 25 isolates
Counter-ions that a name gives are not always drawn.
Measurement Kind: MIC

input: Provide only the value of recorded MIC for Cc1c(N2C[C@@H](N)C3(CC3)C2)c(F)cn2c(=O)c(C(=O)O)cc(C3CC3)c12 [Example 5, hydrochloride]
output: 0.004 to 0.015 µg/mL

---
input: Provide only the value of recorded MIC for NC1CCN(c2c(F)cc3c(=O)c(C(=O)O)cn(C4CC4)c3c2Cl)C1 (stereo not shown)
output: 0.008 to 0.03 µg/mL

input: Provide only the value of recorded MIC for CN[C@@H]1CN(c2c(F)cn3c(=O)c(C(=O)O)cc(C4CC4)c3c2C)CC12CC2 [Example 1, hydrochloride]
output: 0.004 to 0.015 µg/mL

input: Provide only the value of recorded MIC for Cc1c(N2CC[C@H](N)C2)c(F)cn2c(=O)c(C(=O)O)cc(C3CC3)c12 [Example 2, hydrochloride]
output: 0.004 to 0.015 µg/mL

====

Some compounds, each annotated with its measured MIC90.
Tested on: Enterococcus spp. (VanR)
Assay: In vitro MIC, agar dilution
Format: cell-based
Conditions: Enterococcus spp. (VanR), 21 isolates; read-out: MIC90
Counter-ions that a name gives are not always drawn.
# output: bare number, implied unit µg/mL

Recorded MIC90, per entry:
input: Provide only the value of recorded MIC90 for CN[C@@H]1CN(c2c(F)cn3c(=O)c(C(=O)O)cc(C4CC4)c3c2C)CC12CC2 [Example 1, hydrochloride]
output: 1

input: Provide only the value of recorded MIC90 for N[C@@H]1[C@H]2CN(c3nc4c(cc3F)c(=O)c(C(=O)O)cn4-c3ccc(F)cc3F)C[C@@H]12 [Trovafloxacin, trovafloxacin]
output: 1

---
input: Provide only the value of recorded MIC90 for NC1CCN(c2c(F)cc3c(=O)c(C(=O)O)cn(C4CC4)c3c2Cl)C1 (stereo not shown) [Clinafloxacin, clinafloxacin]
output: 2

input: Provide only the value of recorded MIC90 for C[C@@H]1CN(c2c(F)c(N)c3c(=O)c(C(=O)O)cn(C4CC4)c3c2F)C[C@H](C)N1 [Sparfloxacin, sparfloxacin]
output: 8

====

Some molecules, each annotated with its measured MIC90.
Test system: S. pyogenes
Experiment: In vitro MIC, agar dilution
Type: cell-based
Details: Streptococcus pyogenes
Where a name gives a salt, the structure may show the parent alone.
# output: bare number, implied unit µg/mL

input: Provide only the value of recorded MIC90 for CN[C@@H]1CN(c2c(F)cn3c(=O)c(C(=O)O)cc(C4CC4)c3c2C)CC12CC2 [Example 1, hydrochloride]
output: 0.06

input: Provide only the value of recorded MIC90 for Cc1c(N2C[C@@H]3CCCN[C@@H]3C2)c(F)cn2c(=O)c(C(=O)O)cc(C3CC3)c12 [Example 4, hydrochloride]
output: 0.06

input: Provide only the value of recorded MIC90 for Cc1c(N2C[C@@H](N)C3(CC3)C2)c(F)cn2c(=O)c(C(=O)O)cc(C3CC3)c12 [Example 5, hydrochloride]
output: 0.03

From here, focus on the item given below.
input: Provide only the value of recorded MIC90 for `C[C@@H]1CN(c2c(F)c(N)c3c(=O)c(C(=O)O)cn(C4CC4)c3c2F)C[C@H](C)N1`
output: 0.5

====

Some molecules, each annotated with its measured MIC50.
Tested on: H. pylori
Assay: In vitro MIC, agar dilution
Format: cell-based
Conditions: Helicobacter pylori
Counter-ions that a name gives are not always drawn.
# output: bare number, implied unit µg/mL

Recorded MIC50, per entry:
input: State the measured MIC50 (H. pylori) of CN[C@@H]1CN(c2c(F)cn3c(=O)c(C(=O)O)cc(C4CC4)c3c2C)CC12CC2 [Example 1, hydrochloride]
output: 0.03

input: State the measured MIC50 (H. pylori) of Cc1c(N2C[C@@H](N)C3(CC3)C2)c(F)cn2c(=O)c(C(=O)O)cc(C3CC3)c12 [Example 5, hydrochloride]
output: 0.03

input: State the measured MIC50 (H. pylori) of `O=C(O)c1cn(C2CC2)c2cc(N3CCNCC3)c(F)cc2c1=O`
output: 0.5

From here, focus on the item given below.
input: State the measured MIC50 (H. pylori) of Cc1c(N2C[C@@H]3CCCN[C@@H]3C2)c(F)cn2c(=O)c(C(=O)O)cc(C3CC3)c12 [Example 4, hydrochloride]
output: 0.12

====

Test system: M. catarrhalis
Test: In vitro MIC, agar dilution
Format: cell-based
Conditions: Moraxella catarrhalis; M. catarrhalis, 18 isolates; read-out: MIC Range
Counter-ions that a name gives are not always drawn.
Measurement Kind: MIC

input: State the measured MIC (M. catarrhalis) of `N[C@@H]1[C@H]2CN(c3nc4c(cc3F)c(=O)c(C(=O)O)cn4-c3ccc(F)cc3F)C[C@@H]12`
output: 0.015 to 0.25 µg/mL

---
input: State the measured MIC (M. catarrhalis) of CN[C@@H]1CN(c2c(F)cn3c(=O)c(C(=O)O)cc(C4CC4)c3c2C)CC12CC2 [Example 1, hydrochloride]
output: 0.008 to 0.03 µg/mL

input: State the measured MIC (M. catarrhalis) of `C[C@@H]1CN(c2c(F)c(N)c3c(=O)c(C(=O)O)cn(C4CC4)c3c2F)C[C@H](C)N1`
output: 0.015 to 0.25 µg/mL

input: State the measured MIC (M. catarrhalis) of Cc1c(N2C[C@@H](N)C3(CC3)C2)c(F)cn2c(=O)c(C(=O)O)cc(C3CC3)c12 [Example 5, hydrochloride]
output: 0.015 to 0.03 µg/mL

====

Some molecules, each annotated with its measured MIC.
Tested on: Salmonella spp.
Assay: In vitro MIC, agar dilution
Format: cell-based
Settings: 23 isolates
Counter-ions that a name gives are not always drawn.

Recorded MIC, per entry:
input: Provide only the value of recorded MIC for Cc1c(N2C[C@@H](N)C3(CC3)C2)c(F)cn2c(=O)c(C(=O)O)cc(C3CC3)c12 [Example 5, hydrochloride]
output: 0.004 to 0.12 mg/L

input: Provide only the value of recorded MIC for Cc1c(N2C[C@@H]3CCCN[C@@H]3C2)c(F)cn2c(=O)c(C(=O)O)cc(C3CC3)c12 [Example 4, hydrochloride]
output: 0.004 to 0.12 mg/L

input: Provide only the value of recorded MIC for NC1CCN(c2c(F)cc3c(=O)c(C(=O)O)cn(C4CC4)c3c2Cl)C1 (stereo not shown)
output: 0.004 to 0.25 mg/L

input: Provide only the value of recorded MIC for CN[C@@H]1CN(c2c(F)cn3c(=O)c(C(=O)O)cc(C4CC4)c3c2C)CC12CC2 [Example 1, hydrochloride]
output: 0.004 to 0.12 mg/L

input: Provide only the value of recorded MIC for `N[C@@H]1[C@H]2CN(c3nc4c(cc3F)c(=O)c(C(=O)O)cn4-c3ccc(F)cc3F)C[C@@H]12`
output: 0.03 to 1 mg/L

---
input: Provide only the value of recorded MIC for `O=C(O)c1cn(C2CC2)c2cc(N3CCNCC3)c(F)cc2c1=O`
output: 0.004 to 0.5 mg/L

input: Provide only the value of recorded MIC for `C[C@@H]1CN(c2c(F)c(N)c3c(=O)c(C(=O)O)cn(C4CC4)c3c2F)C[C@H](C)N1`
output: 0.004 to 0.5 mg/L
